# system name: Protein kinase C zeta type (Homo sapiens) (UniProt Q05513)
# Sequence (Q05513 whole entry): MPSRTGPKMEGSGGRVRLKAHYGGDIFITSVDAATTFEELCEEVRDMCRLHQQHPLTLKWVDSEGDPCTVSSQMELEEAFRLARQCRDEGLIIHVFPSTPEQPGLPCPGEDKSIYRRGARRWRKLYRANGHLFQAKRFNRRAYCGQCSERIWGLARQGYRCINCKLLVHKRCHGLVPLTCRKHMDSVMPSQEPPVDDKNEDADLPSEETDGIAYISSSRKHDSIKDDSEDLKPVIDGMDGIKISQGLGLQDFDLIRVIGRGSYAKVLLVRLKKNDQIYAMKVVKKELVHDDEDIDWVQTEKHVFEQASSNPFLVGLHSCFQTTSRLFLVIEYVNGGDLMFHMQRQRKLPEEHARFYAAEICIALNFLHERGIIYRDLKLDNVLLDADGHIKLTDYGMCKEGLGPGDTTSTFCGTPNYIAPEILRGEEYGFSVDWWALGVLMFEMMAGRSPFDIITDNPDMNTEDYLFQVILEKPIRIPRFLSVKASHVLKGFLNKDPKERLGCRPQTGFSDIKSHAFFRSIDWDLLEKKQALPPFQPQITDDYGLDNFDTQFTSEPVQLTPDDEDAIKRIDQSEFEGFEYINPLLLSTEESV
# protocol summary: Residual activity of human PKCzeta at 1 uM relative to control
measured property: residual activity (%)

1. O=C1NC(=O)C2=C1c1cn(c3ccccc13)CCCc1cc(nc(N3CCCC3)c1)CCCn1cc2c2ccccc21 99
2. CN(C)c1nc2ccc1CCCn1cc(c3ccccc31)C1=C(C(=O)NC1=O)c1cn(c3ccccc13)CC2 98
3. O=C1NC(=O)C2=C1c1cn(c3ccccc13)CCCc1ccc(c(N3CCCC3)n1)CCCn1cc2c2ccccc21 116
4. CN(C)c1cc2cc(n1)CCCn1cc(c3ccccc31)C1=C(C(=O)NC1=O)c1cn(c3ccccc13)CCC2 105

* * *

# system name: Mitogen-activated protein kinase 13 (Homo sapiens)
# protocol summary: Inhibition of human SAPK4 at 1 uM relative to control; values are per cent of control
measured property: residual activity (%)

1. CN(C)c1cc2cc(n1)CCCn1cc(c3ccccc31)C1=C(C(=O)NC1=O)c1cn(c3ccccc13)CCC2 104
2. O=C1NC(=O)C2=C1c1cn(c3ccccc13)CCCc1ccc(c(N3CCCC3)n1)CCCn1cc2c2ccccc21 102
3. O=C1NC(=O)C2=C1c1cn(c3ccccc13)CCCc1cc(nc(N3CCCC3)c1)CCCn1cc2c2ccccc21 102
4. CN(C)c1nc2ccc1CCCn1cc(c3ccccc31)C1=C(C(=O)NC1=O)c1cn(c3ccccc13)CC2 101

* * *

# system name: Protein kinase C beta type (Homo sapiens)
# Sequence (P05771 whole entry): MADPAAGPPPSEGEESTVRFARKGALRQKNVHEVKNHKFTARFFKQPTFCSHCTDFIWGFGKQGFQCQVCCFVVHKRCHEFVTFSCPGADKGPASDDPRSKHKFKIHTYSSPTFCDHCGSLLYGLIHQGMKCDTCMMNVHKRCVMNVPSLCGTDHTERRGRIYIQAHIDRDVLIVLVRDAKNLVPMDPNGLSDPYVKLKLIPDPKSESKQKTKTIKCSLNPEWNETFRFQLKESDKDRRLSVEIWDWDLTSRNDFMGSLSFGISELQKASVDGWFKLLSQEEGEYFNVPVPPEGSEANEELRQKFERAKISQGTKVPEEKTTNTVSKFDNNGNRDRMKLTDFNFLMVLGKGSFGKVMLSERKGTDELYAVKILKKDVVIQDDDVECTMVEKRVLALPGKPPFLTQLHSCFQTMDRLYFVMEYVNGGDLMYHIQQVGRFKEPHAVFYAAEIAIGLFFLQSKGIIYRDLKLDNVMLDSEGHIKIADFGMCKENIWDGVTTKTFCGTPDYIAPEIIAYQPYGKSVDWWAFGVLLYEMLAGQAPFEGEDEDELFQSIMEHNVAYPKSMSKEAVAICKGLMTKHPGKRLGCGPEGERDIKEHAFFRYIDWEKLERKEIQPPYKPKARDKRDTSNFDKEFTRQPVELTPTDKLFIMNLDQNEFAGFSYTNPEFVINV
# protocol summary: Inhibition of human recombinant PKCbeta2
measured property: IC50 (µM)

Use these answered entries as a reference point.
1. CN(C)c1nc2ccc1CCCn1cc(c3ccccc31)C1=C(C(=O)NC1=O)c1cn(c3ccccc13)CC2 1.4
2. CN(C)c1cc2cc(n1)CCCn1cc(c3ccccc31)C1=C(C(=O)NC1=O)c1cn(c3ccccc13)CCC2 2.4

(I) O=C1NC(=O)C2=C1c1cn(c3ccccc13)CCCc1ccc(c(N3CCCC3)n1)CCCn1cc2c2ccccc21
(II) O=C1NC(=O)C2=C1c1cn(c3ccccc13)CCCc1cc(nc(N3CCCC3)c1)CCCn1cc2c2ccccc21
I need your help: which of the pair I , II has higher IC50? Lab note: record the label of whichever item you select.
I
(I: 2.2 µM, II: 1.2 µM)

* * *

# system name: Ribosomal protein S6 kinase alpha-5 (Homo sapiens, UniProt O75582)
# Sequence (O75582 whole entry, looked up): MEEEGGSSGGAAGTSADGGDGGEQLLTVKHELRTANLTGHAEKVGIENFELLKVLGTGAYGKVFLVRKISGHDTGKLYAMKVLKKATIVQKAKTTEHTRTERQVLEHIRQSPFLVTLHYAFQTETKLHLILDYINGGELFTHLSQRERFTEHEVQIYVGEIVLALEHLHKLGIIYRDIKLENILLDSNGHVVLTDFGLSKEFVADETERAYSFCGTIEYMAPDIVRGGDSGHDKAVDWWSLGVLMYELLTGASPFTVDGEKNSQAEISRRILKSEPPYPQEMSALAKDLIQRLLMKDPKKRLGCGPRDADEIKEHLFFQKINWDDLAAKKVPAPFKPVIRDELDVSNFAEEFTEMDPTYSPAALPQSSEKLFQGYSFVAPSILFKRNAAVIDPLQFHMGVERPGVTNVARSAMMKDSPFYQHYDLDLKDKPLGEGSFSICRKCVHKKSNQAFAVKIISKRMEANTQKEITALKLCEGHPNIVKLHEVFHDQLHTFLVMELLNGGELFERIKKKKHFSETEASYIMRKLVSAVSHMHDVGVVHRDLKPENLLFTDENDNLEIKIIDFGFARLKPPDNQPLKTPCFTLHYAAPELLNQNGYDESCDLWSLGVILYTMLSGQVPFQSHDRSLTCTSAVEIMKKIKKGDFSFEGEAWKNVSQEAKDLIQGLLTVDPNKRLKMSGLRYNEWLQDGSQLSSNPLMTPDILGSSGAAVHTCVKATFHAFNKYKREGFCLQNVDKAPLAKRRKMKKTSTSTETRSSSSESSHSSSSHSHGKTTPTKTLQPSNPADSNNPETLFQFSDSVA
# protocol summary: Inhibition of human MSK1 at 1 uM relative to control; values are per cent of control
measured property: residual activity (%)

1. O=C1NC(=O)C2=C1c1cn(c3ccccc13)CCCc1cc(nc(N3CCCC3)c1)CCCn1cc2c2ccccc21 38
2. CN(C)c1nc2ccc1CCCn1cc(c3ccccc31)C1=C(C(=O)NC1=O)c1cn(c3ccccc13)CC2 36

(a) O=C1NC(=O)C2=C1c1cn(c3ccccc13)CCCc1ccc(c(N3CCCC3)n1)CCCn1cc2c2ccccc21
(b) CN(C)c1cc2cc(n1)CCCn1cc(c3ccccc31)C1=C(C(=O)NC1=O)c1cn(c3ccccc13)CCC2
Compare residual activity: is it lower for a or for b ? Lab note: record the label of whichever item you select.
b

* * *

# system name: Rho-associated protein kinase 2 (Homo sapiens) (UniProt O75116)
# Sequence (O75116 whole entry, looked up): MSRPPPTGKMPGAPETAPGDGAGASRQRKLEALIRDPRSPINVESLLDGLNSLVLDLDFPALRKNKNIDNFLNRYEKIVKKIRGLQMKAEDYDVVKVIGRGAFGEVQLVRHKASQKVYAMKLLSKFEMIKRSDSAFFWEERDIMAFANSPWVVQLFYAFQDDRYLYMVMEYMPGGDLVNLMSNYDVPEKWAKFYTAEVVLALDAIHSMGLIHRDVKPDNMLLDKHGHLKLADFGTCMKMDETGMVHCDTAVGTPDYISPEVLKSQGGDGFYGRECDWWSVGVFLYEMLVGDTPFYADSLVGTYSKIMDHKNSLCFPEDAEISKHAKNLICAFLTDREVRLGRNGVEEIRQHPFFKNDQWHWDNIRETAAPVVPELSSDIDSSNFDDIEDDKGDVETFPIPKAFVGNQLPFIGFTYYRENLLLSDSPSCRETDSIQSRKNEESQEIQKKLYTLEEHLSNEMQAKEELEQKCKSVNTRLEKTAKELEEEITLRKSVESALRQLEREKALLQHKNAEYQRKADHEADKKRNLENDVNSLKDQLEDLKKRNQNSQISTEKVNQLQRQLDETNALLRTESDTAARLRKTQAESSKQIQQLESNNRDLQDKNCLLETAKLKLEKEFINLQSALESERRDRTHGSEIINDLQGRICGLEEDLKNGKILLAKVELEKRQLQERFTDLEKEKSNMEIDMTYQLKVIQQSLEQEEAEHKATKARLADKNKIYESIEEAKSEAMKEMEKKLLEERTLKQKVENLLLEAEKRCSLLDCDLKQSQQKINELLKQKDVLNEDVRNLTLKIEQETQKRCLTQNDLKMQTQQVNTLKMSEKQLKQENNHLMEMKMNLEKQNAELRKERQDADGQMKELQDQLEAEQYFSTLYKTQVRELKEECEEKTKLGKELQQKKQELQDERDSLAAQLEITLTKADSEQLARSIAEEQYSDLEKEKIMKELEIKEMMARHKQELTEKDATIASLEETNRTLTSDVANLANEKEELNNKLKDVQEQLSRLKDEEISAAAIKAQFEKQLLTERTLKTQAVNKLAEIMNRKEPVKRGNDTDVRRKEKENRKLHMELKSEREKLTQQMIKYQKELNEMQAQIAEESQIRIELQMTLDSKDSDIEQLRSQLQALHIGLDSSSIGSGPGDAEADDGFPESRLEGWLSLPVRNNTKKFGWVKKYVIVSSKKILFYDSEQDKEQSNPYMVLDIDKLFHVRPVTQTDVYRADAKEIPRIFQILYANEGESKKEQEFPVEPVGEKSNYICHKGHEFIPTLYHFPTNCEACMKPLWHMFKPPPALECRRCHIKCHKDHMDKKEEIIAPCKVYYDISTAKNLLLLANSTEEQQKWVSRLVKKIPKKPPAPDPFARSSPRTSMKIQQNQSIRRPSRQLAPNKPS
# protocol summary: Inhibition of human ROCK2 at 1 uM relative to control; values are per cent of control
measured property: residual activity (%)

1) CN(C)c1cc2cc(n1)CCCn1cc(c3ccccc31)C1=C(C(=O)NC1=O)c1cn(c3ccccc13)CCC2 103
2) O=C1NC(=O)C2=C1c1cn(c3ccccc13)CCCc1ccc(c(N3CCCC3)n1)CCCn1cc2c2ccccc21 104
3) CN(C)c1nc2ccc1CCCn1cc(c3ccccc31)C1=C(C(=O)NC1=O)c1cn(c3ccccc13)CC2 110
4) O=C1NC(=O)C2=C1c1cn(c3ccccc13)CCCc1cc(nc(N3CCCC3)c1)CCCn1cc2c2ccccc21 107
